Data origin: patent US20240415914A1

format: physicochemical; details: stored at room temperature (21-25° C.), day 540
reported.metric: Stability in Powder Concentrate (content by LCMSMS) (mg/g powder)
A number alone suffices; assume mg/g powder.

Recorded results for 3 compounds are shown here.
*Q* Need Stability in Powder Concentrate (content by LCMSMS) of CCCCCc1cc(O)c2c(c1)OC(C)(CCC=C(C)C)C=C2 (stereo not shown) , thanks.
*A* 0.070

*Q* Which Stability in Powder Concentrate (content by LCMSMS) reading was recorded for the compound CC(=O)Oc1c(C)c(C)c2c(c1C)CCC(C)(CCC[C@H](C)CCC[C@H](C)CCCC(C)C)O2 (stereo partly drawn) [α-Tocopheryl acetate] ?
*A* 2.21

*Q* Dear colleague, I am looking for the recorded Stability in Powder Concentrate (content by LCMSMS) of the following compound: CCCCCc1cc(O)c(C/C=C(\C)CCC=C(C)C)c(O)c1
*A* 1.07

***
*Q* Item Cc1c(C)c2c(c(C)c1OC(=O)CCC(=O)O)CC[C@@](C)(CCC[C@H](C)CCC[C@H](C)CCCC(C)C)O2 [α-Tocopheryl succinate] has what recorded Stability in Powder Concentrate (content by LCMSMS)?
*A* 1.80

====

assay: Stability of cannabinoid and Vitamin E components of Beverage 1 (AB White) stored at 8° C. and 21-25° C., LCMSMS over 570 days; assay type: physicochemical; details: beverage stored at 21-25° C., day 330
The reader will find reported Stability in AB White, 21-25° C. (content by LCMSMS) values listed item by item below.
Write the value in µg/mL as a bare number.

*Q* Look up Stability in AB White, 21-25° C. (content by LCMSMS): CCCCCc1cc(O)c2c(c1)OC(C)(CCC=C(C)C)C=C2 (stereo not drawn)
*A* 0.312

*Q* Report Stability in AB White, 21-25° C. (content by LCMSMS) for CCCCCc1cc2c(c(O)c1C(=O)O)[C@@H]1C=C(C)CC[C@H]1C(C)(C)O2 [D9 THCA, delta-9-tetrahydrocannabinolic acid] please.
*A* 0.894

*Q* Record request: Stability in AB White, 21-25° C. (content by LCMSMS) value, item CCCc1cc(O)c2c(c1)OC(C)(C)[C@@H]1CCC(C)=C[C@@H]21 [THCV, delta-9-tetrahydrocannabivarin]
*A* 3.55

*Q* Could you share which Stability in AB White, 21-25° C. (content by LCMSMS) value was measured for CCCCCc1cc(O)c2c(c1)OC1(C)CCC3C1C2C3(C)C (stereo not drawn) ?
*A* 0.526

***
*Q* Find the recorded Stability in AB White, 21-25° C. (content by LCMSMS) belonging to C=C(C)[C@@H]1CCC(C)=C[C@H]1c1c(O)cc(CCCCC)c(C(=O)O)c1O and report it.
*A* 1.72

*Q* What value of Stability in AB White, 21-25° C. (content by LCMSMS) has been reported for the following molecule? CCCCCc1cc(O)c2c(c1)OC(C)(C)[C@@H]1CCC(C)=C[C@@H]21 [D9 THC, delta-9-tetrahydrocannabinol, reference compound]
*A* 11.4

*Q* Request the reported Stability in AB White, 21-25° C. (content by LCMSMS) associated with CCCCCc1cc(O)c2c(c1)OC(C)(C)c1ccc(C)cc1-2
*A* 2.75

*Q* Fill in the blank: the reported Stability in AB White, 21-25° C. (content by LCMSMS) of CCCCCc1cc(O)c(C/C=C(\C)CCC=C(C)C)c(O)c1 is ____.
*A* 4.71

*Q* Need Stability in AB White, 21-25° C. (content by LCMSMS), item C=C(C)[C@@H]1CCC(C)=C[C@H]1c1c(O)cc(CCC)cc1O
*A* 0.144
